Source: paper PMC8269116

Reported IC50 values follow for various molecules
Target: DAT (Homo sapiens, UniProt Q01959)
Sequence (Q01959 whole entry): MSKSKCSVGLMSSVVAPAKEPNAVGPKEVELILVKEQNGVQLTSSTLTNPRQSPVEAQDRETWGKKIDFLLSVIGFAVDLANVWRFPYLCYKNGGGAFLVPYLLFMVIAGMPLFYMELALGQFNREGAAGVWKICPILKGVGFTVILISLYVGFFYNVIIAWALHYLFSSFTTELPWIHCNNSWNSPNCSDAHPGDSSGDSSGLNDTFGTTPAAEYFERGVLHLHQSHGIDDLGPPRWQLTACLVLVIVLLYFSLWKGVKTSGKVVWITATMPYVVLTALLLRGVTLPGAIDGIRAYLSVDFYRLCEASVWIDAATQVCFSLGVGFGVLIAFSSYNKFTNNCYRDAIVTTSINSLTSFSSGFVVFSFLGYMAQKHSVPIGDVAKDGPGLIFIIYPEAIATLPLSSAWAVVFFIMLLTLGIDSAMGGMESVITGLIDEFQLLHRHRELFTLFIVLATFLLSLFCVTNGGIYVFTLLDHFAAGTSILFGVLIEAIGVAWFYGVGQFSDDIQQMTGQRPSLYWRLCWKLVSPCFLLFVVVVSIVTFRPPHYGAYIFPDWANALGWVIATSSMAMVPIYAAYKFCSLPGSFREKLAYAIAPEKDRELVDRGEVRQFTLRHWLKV
Test: [3H]dopamine uptake inhibition in HEK 293 cells overexpressing human DAT

| molecule | units | IC50 |
| --- | --- | --- |
| CC(N)Cc1ccc(O)c(O)c1 (stereo not shown) [HHA, 3,4-Dihydroxyamphetamine] | µM | 9.6 |
| CNC(C)Cc1ccc2c(c1)OCO2 (stereo not shown) [MDMA, 3,4-Methylenedioxymethamphetmine, reference compound] | µM | 21 |
| CC(N)Cc1ccc2c(c1)OCO2 (stereo not shown) [MDA, 3,4-methylenedioxyamphetamine, reference compound] | µM | 17 |
| CNC(C)C(=O)c1ccc2c(c1)OCO2 (stereo not shown) [Methylone, 3,4-methylenedioxymethcathinone, reference compound] | µM | 6.6 |
